Hi, to clarify the labels: condition met covers glass transition temperature from 30 °C upward, condition not met covers anything below 30 °C.

Previously resolved entries follow.
| compound | cat |
| --- | --- |
| *CCCCCCNC(=O)Cc1ccc(C(=O)N*)cc1 (repeat unit) | condition met |
| *CC(*)C(=O)OC(Cl)C(Cl)(Cl)Cl (repeat unit) | condition met |

Problem: I'd appreciate it if you could say whether *CC(C)O* (repeat unit) has glass transition temperature at least equal to 30 °C.
Result: condition not met

Problem: Also check */C(=C(\C#N)c1ccc(C(=O)OC2CCN(*)CC2)cc1)c1ccc(OC)cc1 (repeat unit)
Result: condition met

Problem: Also check *CCCCOC(=O)CCCCCCCCCCCCCCCCCCCCCCCCCCCCCCCCCCC(=O)O* (repeat unit)
Result: condition not met

====

measured-quantity: glass transition temperature (°C)
Field: numeric (°C). Do not append units.

// below: answered molecules
| molecule | unit-of-measurement | glass transition temperature |
| --- | --- | --- |
| *CCCS(=O)(=O)CCCCS(=O)(=O)CCCOC(=O)c1ccccc1C(=O)O* (repeat unit) | °C | 49.00 |
| *CCCCCCCCCCCN1C(=O)c2ccc(-c3ccc(-c4ccc5c(c4)C(=O)N(*)C5=O)cc3)cc2C1=O (repeat unit) | °C | 89.00 |
| *c1ccc(OCCCCCCCCCCCOC(=O)c2ccc(C(=O)OCCCCCCCCCCCOc3cccc(-c4nnc(*)s4)c3)cc2)cc1 (repeat unit) | °C | 35.00 |
| *c1cccc(-n2c(=O)c3cc4c(=O)n(*)c(=O)c4cc3c2=O)c1 (repeat unit) | °C | 430.00 |

Problem: // lookup glass transition temperature for *CCC[Si](*)(c1ccc(C)cc1)c1ccc(C)cc1 (repeat unit)
Result: 38.00

Problem: Also check *C(=O)c1cc2c(cc1Cl)C(=O)N(c1cc(N3C(=O)c4cc(*)c(Cl)cc4C3=O)cc(C(C)(C)C)c1)C2=O (repeat unit)
Result: 290.00

Problem: Also check *c1ccc(-c2ccc(N3C(=O)c4c(c(-c5ccccc5)c(-c5ccc(Oc6ccc(-c7c(-c8ccccc8)c8c(c(-c9ccccc9)c7-c7ccccc7)C(=O)N(*)C8=O)cc6)cc5)c(-c5ccccc5)c4-c4ccccc4)C3=O)cc2)cc1 (repeat unit)
Result: 399.00

Problem: Also check *C(=O)c1ccc2c(c1)C(=O)N(c1cc(N3C(=O)c4ccc(*)cc4C3=O)c(C)cc1C)C2=O (repeat unit)
Result: 305.00

====

glass transition temperature less than 200 °C is Satisfied; glass transition temperature greater than or equal to 200 °C is Not satisfied.

| compound | cat |
| --- | --- |
| *c1ccc(Oc2c(F)c(F)c(C(=O)c3c(F)c(F)c(Oc4ccc(C5(*)OC(=O)c6ccccc65)cc4)c(F)c3F)c(F)c2F)cc1 (repeat unit) | Not satisfied |
| *C(=O)c1cccc(C(=O)c2ccc3c(c2)C(=O)N(c2ccc(C(c4ccc(N5C(=O)c6ccc(*)cc6C5=O)cc4)(C(F)(F)F)C(F)(F)F)cc2)C3=O)c1 (repeat unit) | Not satisfied |
| *CC(*)(CC(=O)Oc1ccc(OCC)cc1)C(=O)Oc1ccc(OCC)cc1 (repeat unit) | Satisfied |
| *OC(CC)CC(*)=O (repeat unit) | Satisfied |
| *CC(O)CO* (repeat unit) | Satisfied |

Problem: # check: glass transition temperature < 200 °C for *c1ccc(Oc2ccc3ccc(Oc4ccc(-n5c(=O)c6cc7c(=O)n(*)c(=O)c7cc6c5=O)cc4)cc3c2)cc1 (repeat unit)
Result: Not satisfied

Problem: Also check *c1ccc(Oc2ccc(N3C(=O)C4CCC5C(=O)N(*)C(=O)C5C4C3=O)cc2)cc1 (repeat unit)
Result: Not satisfied
